- System: MDA-MB-435
- Protocol text: NCI tumour cell line growth inhibition, 48 h
The source made the active and inactive calls. Rule as the data show it: active = GI50 up to about 1.1 µM and inactive = higher.
Labels: 1 for active, 0 for inactive

| Compound | Assigned category |
| --- | --- |
| Oc1cc(/C=C/c2ccccc2)nc2cc3c(cc12)OCO3 | 0 |
| Nc1nc(N)nc(-c2cnc3ccccc3c2)n1 | 0 |
| C[C@H](NC1=CC(=O)C(N[C@@H](C)[C@H](O)c2ccccc2)=CC1=O)[C@H](O)c1ccccc1 | 0 |
| COc1cccc(-c2cc(O)c3cc(N)ccc3n2)c1 | 1 |
| C=C1C(=O)OC2C3C(=C)[C@@H](OC(C)=O)CC3C(C)=CC(OC(=O)C(C)(O)C(C)OC(C)=O)[C@@H]12 (stereo not given in full) | 0 |
| O=C(c1ccccc1)c1cc(-c2ccccc2)c(-c2ccccc2)[nH]c(=O)c1=O | 0 |
| O=C(CCc1cccc(O)c1)NCCc1ccc(O)cc1 | 0 |
| O=c1[nH]c(Nc2nc3ccccc3[nH]2)nc(O)c1-c1ccccc1 | 0 |
| O=c1c2cc(S(=O)(=O)O)ccc2nc(COc2ccc(Oc3ccc(Cl)cc3Cl)cc2)n1C(=S)Nc1ccc(Cl)cc1 | 0 |
| CC[C@]12C=CCN3CCC4(c5cc([C@@]6(C(=O)OC)CC7CN(CCc8c6[nH]c6ccccc86)C[C@@H]6CCC[C@H]76)c(OC)cc5N(C)C4[C@](O)(C(=O)OC)C1OC(C)=O)C32 (stereo not given in full) | 1 |
